Assay: in vitro
Conditions: CD-1, mouse, plasma, pH 7.4, % bound to plasma
Labelling field: enter met if recorded fraction unbound at 4 h, 2 μM is less than 0.1. Enter not met if it equals or exceeds that cut-off.

Reference set, count: 4
> print(dat)
                                   compound  discrete.label
1  O=C(Cc1cccs1)N[C@@H]1C(=O)N2C(C(=O)O)=C(CSc3cccc[n+]3[O-])CS[C@H]12         not met
2  O=C(Cc1ccc(C2=NCCN2)cc1)N[C@@H]1C(=O)N2C(C(=O)O)=C(CSc3nncs3)CS[C@H]12         not met
3  CN(C)C(=S)SCC1=C(C(=O)O)N2C(=O)[C@@H](NC(=O)Cc3cccs3)[C@H]2SC1             met
4  O=C(O)C1=C(CSc2cccc[n+]2[O-])CS[C@@H]2[C@H](NC(=O)/C(=N\Oc3ccccc3)c3ccco3)C(=O)N12             met

Here's an entry: O=C(CCCC(NC(=O)c1ccc(Cl)cc1Cl)C(=O)O)N[C@@H]1C(=O)N2C(C(=O)O)=C(CSc3cccc[n+]3[O-])CS[C@H]12 (some centres unmarked) . Is its fraction unbound at 4 h, 2 μM below 0.1? not met

* * *

Experiment: Stability in fasted simulated intestinal fluid (FaSSIF)
Conditions: 10 μM, pH 6.5, room temperature, 24 h
READOUT_LABEL: FaSSIF Stability, % remaining, 24h (%)
Form entry: value (%) — number only.

> print(dat)
                                   molecule                       readout.label  unit.abbreviation  data.value
1  CCc1nnc(SCC2=C(C(=O)O)N3C(=O)[C@@H](NC(=O)Cc4ccc(C5=NCCN5)cc4)[C@H]3SC2)s1 [TBBL-0000310]  FaSSIF Stability, % remaining, 24h                  %       95.07
2  O=C(O)C1=C(CSc2cccc[n+]2[O-])CS[C@@H]2[C@H](NC(=O)C(F)c3ccccc3)C(=O)N12 (some centres unmarked) [TBBL-0000004]  FaSSIF Stability, % remaining, 24h                  %       94.96
3  Cn1nnnc1SCC1=C(C(=O)O)N2C(=O)[C@@H](NC(=O)Cc3ccc(C4=NCCCN4)cc3)[C@H]2SC1 [TBBL-0000309]  FaSSIF Stability, % remaining, 24h                  %       77.15
4  NCc1ccccc1CC(=O)N[C@@H]1C(=O)N2C(C(=O)O)=C(CSc3nnnn3CCO)CS[C@H]12 [TBBL-0000656]  FaSSIF Stability, % remaining, 24h                  %        70.9
5  CC=CC(=O)OCC1=C(C(=O)O)N2C(=O)[C@@H](NC(=O)C(=NO)c3cccs3)[C@H]2SC1 [TBBL-0000058]  FaSSIF Stability, % remaining, 24h                  %       66.32
6  NCCSC=CC1=C(C(=O)O)N2C(=O)C(NC(=O)CSc3ccc(Cl)c(Cl)c3)C2SC1 (centres unmarked) [TBBL-0000306]  FaSSIF Stability, % remaining, 24h                  %       98.38

// FaSSIF Stability, % remaining, 24h lookup, key: CC(=O)OCC1=C(C(=O)O)N2C(=O)[C@@H](NC(=O)CSc3ccncc3)[C@H]2SC1 [TBBL-0000063] 62

// repeat for CNCc1ccccc1CC(=O)N[C@@H]1C(=O)N2C(C(=O)O)=C(CSc3nnnn3C)CS[C@H]12 [TBBL-0000468] and report 56.36

// repeat for CCc1nnc(SCC2=C(C(=O)O)N3C(=O)[C@@H](NC(=O)Cc4ccc(C5=NCCCN5)cc4)[C@H]3SC2)s1 [TBBL-0000317] and report 90.38

// repeat for CCCc1nnc(SCC2=C(C(=O)O)N3C(=O)[C@@H](NC(=O)Cc4ccc(C(=N)N)cc4)[C@H]3SC2)s1 [TBBL-0000314] and report 95.17

// repeat for Cn1c(SCC2=C(C(=O)O)N3C(=O)[C@@H](NC(=O)Cc4ccccc4CN)[C@H]3SC2)nnc(O)c1=O [TBBL-0000460] and report 86.61

* * *

Assay: Stability in fasted simulated intestinal fluid (FaSSIF)
Details: 10 μM, pH 6.5, room temperature, 6 h
Listing: FaSSIF Stability, % remaining, 6h of selected molecules
Form entry: value (%) — number only.

Here are 3 molecules together with their reported answers.
> print(dat)
                                   molecule  data.value
1  NCCSC=CC1=C(C(=O)O)N2C(=O)C(NC(=O)CSc3ccc(Cl)c(Cl)c3)C2SC1 (centres unmarked) [TBBL-0000306]      102.19
2  NCc1ccccc1CC(=O)N[C@@H]1C(=O)N2C(C(=O)O)=C(CSc3nnnn3CCO)CS[C@H]12 [TBBL-0000656]       89.32
3  Cn1nnnc1SCC1=C(C(=O)O)N2C(=O)[C@@H](NC(=O)Cc3ccc(C4=NCCCN4)cc3)[C@H]2SC1 [TBBL-0000309]       95.78

Please look at the following molecule next.
// FaSSIF Stability, % remaining, 6h lookup, key: O=C(O)C1=C(CSc2cccc[n+]2[O-])CS[C@@H]2[C@H](NC(=O)C(F)c3ccccc3)C(=O)N12 (some centres unmarked) [TBBL-0000004] 88.58

* * *

Listing: remaining at 24 h, 10 μM of selected compounds
Assay: physchem
Conditions: simulated gi fluid, pH 1.2

Here are 3 compounds together with their reported answers.
> print(dat)
                                   compound             readout.label  data.value
1  CN(C)C(=S)SCC1=C(C(=O)O)N2C(=O)[C@@H](NC(=O)Cc3cccs3)[C@H]2SC1  remaining at 24 h, 10 μM       9.96%
2  O=C(Cc1ccc(C2=NCCN2)cc1)N[C@@H]1C(=O)N2C(C(=O)O)=C(CSc3nncs3)CS[C@H]12  remaining at 24 h, 10 μM       0.45%
3  O=C(Cc1cccs1)N[C@@H]1C(=O)N2C(C(=O)O)=C(CSc3cccc[n+]3[O-])CS[C@H]12  remaining at 24 h, 10 μM        116%

// remaining at 24 h, 10 μM lookup, key: O=C(O)C1=C(CSc2cccc[n+]2[O-])CS[C@@H]2[C@H](NC(=O)/C(=N\Oc3ccccc3)c3ccco3)C(=O)N12 76.6%

// repeat for O=C(CCCC(NC(=O)c1ccc(Cl)cc1Cl)C(=O)O)N[C@@H]1C(=O)N2C(C(=O)O)=C(CSc3cccc[n+]3[O-])CS[C@H]12 (some centres unmarked) and report 61.5%

* * *

Listing: recovery at 120 min, 3 μM of selected compounds
Assay: in vitro
Conditions: human, Caco-2, pH 7.4, Caco-2 Mean Recovery % A to B

Here are 4 compounds together with their reported answers.
> print(dat)
                                   compound  data.value
1  O=C(Cc1cccs1)N[C@@H]1C(=O)N2C(C(=O)O)=C(CSc3cccc[n+]3[O-])CS[C@H]12     < 93.1%
2  O=C(O)C1=C(CSc2cccc[n+]2[O-])CS[C@@H]2[C@H](NC(=O)/C(=N\Oc3ccccc3)c3ccco3)C(=O)N12     < 88.9%
3  CN(C)C(=S)SCC1=C(C(=O)O)N2C(=O)[C@@H](NC(=O)Cc3cccs3)[C@H]2SC1     < 98.3%
4  O=C(CCCC(NC(=O)c1ccc(Cl)cc1Cl)C(=O)O)N[C@@H]1C(=O)N2C(C(=O)O)=C(CSc3cccc[n+]3[O-])CS[C@H]12 (some centres unmarked)      < 106%

Please look at the following compound next.
// recovery at 120 min, 3 μM lookup, key: O=C(Cc1ccc(C2=NCCN2)cc1)N[C@@H]1C(=O)N2C(C(=O)O)=C(CSc3nncs3)CS[C@H]12 104%

* * *

System: plasma proteins
Assay: Plasma protein binding (equilibrium dialysis), CD-1 mouse
Details: 2 μM
READOUT_LABEL: % bound to plasma, CD-1 Mouse (%)
Form entry: value (%) — number only.

Here are 5 compounds together with their reported answers.
> print(dat)
                                   compound                  readout.label  data.value
1  CON=C(C(=O)N[C@@H]1C(=O)N2C(C(=O)O)=C(CSc3cccc[n+]3[O-])CS[C@H]12)c1csc(N)n1  % bound to plasma, CD-1 Mouse        20.9
2  O=C(O)C1=C(CSc2cccc[n+]2[O-])CS[C@@H]2[C@H](NC(=O)C(F)c3ccccc3)C(=O)N12 (stereo partly drawn)  % bound to plasma, CD-1 Mouse        65.5
3  NCc1ccccc1CC(=O)N[C@@H]1C(=O)N2C(C(=O)O)=C(CSc3nnnn3CCO)CS[C@H]12  % bound to plasma, CD-1 Mouse        23.0
4  CCCc1nnc(SCC2=C(C(=O)O)N3C(=O)[C@@H](NC(=O)Cc4ccc(C(=N)N)cc4)[C@H]3SC2)s1  % bound to plasma, CD-1 Mouse        67.9
5  Cn1c(SCC2=C(C(=O)O)N3C(=O)[C@@H](NC(=O)Cc4ccccc4CN)[C@H]3SC2)nnc(O)c1=O  % bound to plasma, CD-1 Mouse        16.1

// % bound to plasma, CD-1 Mouse lookup, key: CCc1nnc(SCC2=C(C(=O)O)N3C(=O)[C@@H](NC(=O)Cc4ccc(C5=NCCN5)cc4)[C@H]3SC2)s1 49.9

// repeat for CNCc1ccccc1CC(=O)N[C@@H]1C(=O)N2C(C(=O)O)=C(CSc3nnnn3C)CS[C@H]12 and report 1.7

// repeat for Cn1nnnc1SCC1=C(C(=O)O)N2C(=O)[C@@H](NC(=O)Cc3ccc(C4=NCCCN4)cc3)[C@H]2SC1 and report 4.1

// repeat for CC(=O)OCC1=C(C(=O)O)N2C(=O)[C@@H](NC(=O)CSc3ccncc3)[C@H]2SC1 and report 14.7

Origin of measurements: paper PMC8922279
